# testMethodNotes: in vivo
# experimentalSetup: male, Swiss Albino, mouse, ip, 50 mg/kg
propertyLabel: concentration at 24 h

Problem: Request the reported concentration at 24 h associated with COc1cc2ncnc(Nc3ccc(F)c(Cl)c3)c2cc1OCCCN1CCN(C(=O)CCCCCCCCCC(=O)N[C@H](C(=O)N2C[C@H](O)C[C@H]2C(=O)NCc2ccc(-c3scnc3C)cc2)C(C)(C)C)CC1 [Compound 6]
Solution: ~1000 nM
